# tested_system: AdeB (Acinetobacter baumannii, UniProt Q2FD70)
# Sequence (Q2FD70 entry or part of it): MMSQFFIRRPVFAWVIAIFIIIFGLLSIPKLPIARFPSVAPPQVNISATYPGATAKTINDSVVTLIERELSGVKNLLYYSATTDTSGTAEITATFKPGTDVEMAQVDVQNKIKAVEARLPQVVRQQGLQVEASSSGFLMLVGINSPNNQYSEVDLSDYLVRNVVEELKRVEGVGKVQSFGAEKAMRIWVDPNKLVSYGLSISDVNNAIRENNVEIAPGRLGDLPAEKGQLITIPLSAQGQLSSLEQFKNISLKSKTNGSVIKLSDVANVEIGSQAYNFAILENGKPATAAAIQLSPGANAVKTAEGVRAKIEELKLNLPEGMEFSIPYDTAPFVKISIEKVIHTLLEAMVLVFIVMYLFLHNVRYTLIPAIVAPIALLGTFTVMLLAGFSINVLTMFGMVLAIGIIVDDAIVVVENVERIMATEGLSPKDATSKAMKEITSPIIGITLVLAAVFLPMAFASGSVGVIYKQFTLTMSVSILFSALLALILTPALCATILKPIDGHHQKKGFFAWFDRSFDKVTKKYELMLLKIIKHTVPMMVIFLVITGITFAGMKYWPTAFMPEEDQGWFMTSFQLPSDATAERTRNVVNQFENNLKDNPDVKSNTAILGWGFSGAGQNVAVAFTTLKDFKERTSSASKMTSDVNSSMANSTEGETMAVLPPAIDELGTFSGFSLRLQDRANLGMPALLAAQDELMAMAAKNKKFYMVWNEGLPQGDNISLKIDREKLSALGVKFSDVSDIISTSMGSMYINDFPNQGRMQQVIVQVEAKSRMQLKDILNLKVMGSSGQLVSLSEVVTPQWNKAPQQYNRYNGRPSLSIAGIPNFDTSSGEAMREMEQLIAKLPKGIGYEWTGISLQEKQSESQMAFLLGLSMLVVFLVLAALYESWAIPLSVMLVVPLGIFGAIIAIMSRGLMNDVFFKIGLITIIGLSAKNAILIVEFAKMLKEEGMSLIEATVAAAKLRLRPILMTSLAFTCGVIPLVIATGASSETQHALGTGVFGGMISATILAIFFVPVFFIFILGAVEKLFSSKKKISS
reported_property: pKd
// pKd here means minus log10 of the molar concentration (mol/L)

Which measured pKd value corresponds to Cc1oc2c(C)c3oc(=O)cc(C)c3cc2c1COCCN [amotosalen] ?
4.55
